# studySystem: human CYP11B1 (Homo sapiens, UniProt P15538)
# Sequence (P15538 25-503): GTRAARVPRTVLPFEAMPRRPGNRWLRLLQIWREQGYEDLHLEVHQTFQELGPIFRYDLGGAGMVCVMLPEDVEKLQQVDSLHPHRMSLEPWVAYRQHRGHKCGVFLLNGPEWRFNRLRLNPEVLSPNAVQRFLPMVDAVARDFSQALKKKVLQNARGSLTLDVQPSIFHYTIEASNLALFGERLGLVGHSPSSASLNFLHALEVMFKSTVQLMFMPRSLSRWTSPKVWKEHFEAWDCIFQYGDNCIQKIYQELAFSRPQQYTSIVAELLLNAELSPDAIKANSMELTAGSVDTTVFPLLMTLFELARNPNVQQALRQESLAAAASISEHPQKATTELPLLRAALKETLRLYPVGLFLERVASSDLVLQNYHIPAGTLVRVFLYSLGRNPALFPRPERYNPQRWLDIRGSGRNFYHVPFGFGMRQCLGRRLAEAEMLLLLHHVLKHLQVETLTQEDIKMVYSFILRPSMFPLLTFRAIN
# assayInfo: G-402 cellular enzyme assay, human CYP11B1 (cortisol release, HTRF)
# particulars: G-402 cells expressing human CYP11B1; 1 μM Deoxycortisol
measuredEndpoint: EC50 (nM)

Worked examples follow.
I am curious: what EC50 value has been reported for CN1C(=O)CCc2cc(-c3cncc(C(C)(C)NC(=O)c4ncccc4Cl)c3)ccc21 [Example 138] ?
267

Can you handle CN1C(=O)CCc2cc(-c3cncc(CNC(=O)c4cnoc4C(F)(F)F)c3)ccc21 [Example 145] next?
3780

Input CC(C)S(=O)(=O)NCc1cncc(-c2ccc3c(c2)CCC(=O)N3C)c1 [Example 38]
1500

Subsequent entry: CN1C(=O)CCc2cc(-c3cncc(O[C@H]4CCN(C(=O)C5CC5)C4)c3)ccc21 [Example 76]
452

Similarly, CN1C(=O)CCc2cc(-c3cncc(C4=CN(C(=O)OC(C)(C)C)CCC4)c3)ccc21 [Example 231] ?
802

P: CN1C(=O)CCc2cc(-c3cncc(C4=CCN(C(=O)OC(C)(C)C)CC4)c3)ccc21 [Example 247]
Q: CN1C(=O)CCc2cc(-c3cncc(CNC(=O)c4cc(Cl)nnc4Cl)c3)ccc21 [Example 95]
# compare EC50 for P vs Q ; return the one with the smaller value Your answer should be the label of the entry you select.
P

A: CC(=O)N1CC[C@H](Oc2cncc(-c3ccc4c(c3)CCC(=O)N4C)c2)C1 [Example 254]
B: CCS(=O)(=O)NC(C)c1cncc(-c2cc3c(cc2F)N(C)C(=O)CC3)c1 (single isomer, unassigned) [Example 191]
From the items above, decide which of A and B has the lower EC50 reading. Label of pick, please.
A

====

# studySystem: human CYP11B1 (Homo sapiens)
# assayInfo: G-402 cellular enzyme assay, human CYP11B1 (cortisol release, HTRF)
# particulars: G-402 cells expressing human CYP11B1; 1 μM Deoxycortisol
measuredEndpoint: EC50 (nM)

Which measured EC50 value corresponds to CN1C(=O)CCc2cc(-c3cncc(NCc4ccccc4)n3)ccc21 [Example 25] ?
110

CN1C(=O)CCc2cc(-c3cncc(CN4CCCCC4=O)c3)ccc21 [Example 19] ?
800

Try Cc1noc(C)c1S(=O)(=O)NCc1cncc(-c2ccc3c(c2)CCC(=O)N3C)c1 [Example 154] next.
1430

What about this compound? CN1C(=O)CCc2cc(-c3cncc(CNC(=O)c4ccc(Cl)nn4)c3)ccc21 [Example 104]
94

Also, CCS(=O)(=O)N(C)Cc1cncc(-c2cc3c(cc2F)N(C)C(=O)CC3)c1 [Example 211] please.
119

P: CN1C(=O)CCc2cc(-c3cncc(NCCO)n3)ccc21 [Example 24]
Q: CN1C(=O)CCc2nc(-c3cccnc3)ccc21 [Example 34]
Which value of EC50 is smaller, the one for P or the one for Q ? I would appreciate it if you answered with the label of your choice.
P
(P: 220 nM, Q: 29200 nM)

====

# studySystem: human CYP11B1 (Homo sapiens, UniProt P15538)
# assayInfo: G-402 cellular enzyme assay, human CYP11B1 (cortisol release, HTRF)
# particulars: G-402 cells expressing human CYP11B1; 1 μM Deoxycortisol
measuredEndpoint: EC50 (µM)

Study these solved cases before continuing.
Fill blank: measured EC50 of the molecule CCS(=O)(=O)NCc1cncc(-c2ccc3c(c2)CCC(=O)N3C)c1Cl is ____.
1.01

Try the molecule CCS(=O)(=O)NCc1cncc(-c2ccc3c(c2F)CCC(=O)N3C)c1
1.34

1: CN1C(=O)CCc2cc(-c3cncc(CNC(=O)c4nccn4C)c3)ccc21
2: CN1C(=O)CCc2cc(-c3cncc(CN[S@+]([O-])C(C)(C)C)c3Cl)ccc21
Pick one, 1 or 2 : lowest reported EC50. Please identify the chosen entry by its label.
1
(1: 0.046 µM, 2: 1.26 µM)

The reported numbers originate from patent US9260408B2.
